A collection of molecules and their measured Ki'
Target: Pancreatic elastase (Sus scrofa) (UniProt P08419+P00772)
Experiment: Inhibition constant for uncompetitive inhibition of Suc-AAPA and Pancreatic elastase
Type: protein assay

- structure-smiles: "CC[C@@H](C)[C@@H](NC(=O)[C@@H](C)NC(=O)[C@@H](CCC(=O)O)NC(=O)[C@@H](CC(C)C)NC(=O)[C@@H](Cc1ccccc1)NC(=O)[C@H](N)CCSC)C(=O)N1CCC[C@H]1C(=O)N[C@@H](CCSC)C(=O)O"
  Ki', µM: 440
- structure-smiles: "CSCC[C@@H](N)C(=O)N[C@H](Cc1ccccc1)C(=O)N[C@H](CC(C)C)C(=O)N[C@H](CCC(=O)O)C(=O)O"
  Ki', µM: 370
- structure-smiles: "CC[C@@H](C)[C@@H](NC(=O)[C@@H](C)NC(=O)[C@@H](CCC(=O)O)NC(=O)[C@@H](CC(C)C)NC(=O)[C@@H](Cc1ccccc1)NC(=O)[C@H](N)CCSC)C(=O)N1CCC[C@H]1C(=O)N[C@H](CCCCN)C(=O)O"
  Ki', µM: 640
- structure-smiles: "CC[C@@H](C)[C@@H](NC(=O)[C@@H](C)NC(=O)[C@@H](CCC(=O)O)NC(=O)[C@@H](CC(C)C)NC(C)=O)C(=O)N1CCC[C@H]1C(=O)N[C@@H](CCSC)C(=O)O"
  Ki', µM: 890
- structure-smiles: "CC[C@H](C)[C@H](NC(=O)[C@H](C)NC(=O)[C@H](CCC(=O)O)NC(=O)[C@H](CC(C)C)NC(=O)[C@@H](N)Cc1ccccc1)C(=O)N1CCC[C@@H]1C(=O)N[C@H](CCSC)C(=O)O"
  Ki', µM: 530

The values you see were collected from ChEMBL document CHEMBL1132903.
